Reference source: patent US20210230279A1

Biological target: T1, recombinant human integrin αvβ8 (human, UniProt P06756 31-992; P26012 43-684)
T1 construct: also called Human Integrin alpha V beta 8; purified recombinant αvβ8
T1 sequence (P06756 31-992 limits assumed, chain 1 of 2): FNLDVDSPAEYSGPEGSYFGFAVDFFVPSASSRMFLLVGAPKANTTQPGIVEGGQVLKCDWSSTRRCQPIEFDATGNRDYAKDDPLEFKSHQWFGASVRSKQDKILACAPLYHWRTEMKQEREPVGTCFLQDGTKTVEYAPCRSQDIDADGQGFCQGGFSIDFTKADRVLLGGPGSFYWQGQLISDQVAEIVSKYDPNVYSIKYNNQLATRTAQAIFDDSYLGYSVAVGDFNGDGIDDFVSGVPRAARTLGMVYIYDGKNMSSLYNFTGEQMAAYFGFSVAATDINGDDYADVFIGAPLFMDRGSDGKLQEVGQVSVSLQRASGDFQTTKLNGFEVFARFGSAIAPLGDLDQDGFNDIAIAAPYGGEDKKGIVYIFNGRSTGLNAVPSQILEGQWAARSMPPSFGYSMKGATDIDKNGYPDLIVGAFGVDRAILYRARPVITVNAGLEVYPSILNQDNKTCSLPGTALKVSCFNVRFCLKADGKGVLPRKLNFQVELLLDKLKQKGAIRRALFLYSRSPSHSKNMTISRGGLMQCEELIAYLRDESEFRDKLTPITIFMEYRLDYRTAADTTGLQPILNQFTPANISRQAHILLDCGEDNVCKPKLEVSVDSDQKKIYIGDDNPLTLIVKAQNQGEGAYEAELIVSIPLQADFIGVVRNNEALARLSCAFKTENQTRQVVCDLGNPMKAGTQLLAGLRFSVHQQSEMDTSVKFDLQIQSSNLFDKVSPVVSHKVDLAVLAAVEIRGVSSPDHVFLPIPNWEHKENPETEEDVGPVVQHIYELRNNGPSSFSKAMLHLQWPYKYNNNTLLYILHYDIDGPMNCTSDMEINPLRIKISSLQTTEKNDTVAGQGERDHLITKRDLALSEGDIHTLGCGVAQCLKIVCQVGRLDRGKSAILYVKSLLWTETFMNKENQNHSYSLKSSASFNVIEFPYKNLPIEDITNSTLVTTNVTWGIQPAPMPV
T1 sequence (P26012 43-684 limits assumed, chain 2 of 2): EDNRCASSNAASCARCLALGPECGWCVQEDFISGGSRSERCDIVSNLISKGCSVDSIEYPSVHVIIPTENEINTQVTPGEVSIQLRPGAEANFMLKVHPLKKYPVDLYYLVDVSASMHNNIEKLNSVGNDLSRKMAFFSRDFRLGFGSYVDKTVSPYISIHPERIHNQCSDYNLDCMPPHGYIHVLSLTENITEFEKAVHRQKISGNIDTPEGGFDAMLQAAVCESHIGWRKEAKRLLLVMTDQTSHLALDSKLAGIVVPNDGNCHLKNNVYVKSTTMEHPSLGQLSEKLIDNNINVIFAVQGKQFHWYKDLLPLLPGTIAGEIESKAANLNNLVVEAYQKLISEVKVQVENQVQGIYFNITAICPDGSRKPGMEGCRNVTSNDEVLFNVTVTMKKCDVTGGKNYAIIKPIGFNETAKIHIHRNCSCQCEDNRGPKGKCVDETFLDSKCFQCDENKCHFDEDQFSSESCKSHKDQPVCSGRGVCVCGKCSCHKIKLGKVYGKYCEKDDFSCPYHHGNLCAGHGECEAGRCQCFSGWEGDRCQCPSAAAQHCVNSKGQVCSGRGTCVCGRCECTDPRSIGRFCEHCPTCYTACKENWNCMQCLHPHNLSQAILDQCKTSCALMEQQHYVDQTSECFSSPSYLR
Assay: ELISA: integrin coated on plate, supernatant of transfected 293 cells at 1/10 dilution, anti-mouse IgG-HRP; score normalized to expression;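 note: scale runs from 0 (no apparent binding) to 4 (robust binding), with scores adjusted for clone protein expression as determined by a murine IgG ELISA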
ENDPOINT: binding intensity score (0-4) (score 0-4)
Numbers only, in score 0-4.

Here are 5 binders together with their reported answers.
# BINDER, OUTPUT_UNIT, ASSAY_VALUE
records = [
    ("C6 VH / RGD1 Vk murine IgG (antibody, V domains shown, Murine IgG, supernatant of 293 cells; CDRL1 swap into the C6D4 murine IgG vector, VH not altered; also called C6D4-RGD1; C6RGD1) VH: QIQLLQSGPELKKPGETVKISCKASGYTFTDYSMHWVKQAPGKGLKWVARINTETGEPTFADDFRGRFAVSLETSASTAYLQINNLKNEDTATYFCAIFYYGRDSWGQGTTLTVSS VL: DIVMTQSPSSLAVSAGEKVTMSCKSSQSLLGRGDLGNALAWYQQKPGQSPRLLIYWASTRESGVPDRFTGSGSGTDFTLTISSVQAEDLAVYYCKQSYNLLSFGAGTKLELKR", "score 0-4", 1),
    ("C6 VH / RGD3-11 Vk murine IgG (antibody, V domains shown, Murine IgG, supernatant of 293 cells; CDRL1 swap into the C6D4 murine IgG vector, VH not altered; also called C6RGD3-11) VH: QIQLLQSGPELKKPGETVKISCKASGYTFTDYSMHWVKQAPGKGLKWVARINTETGEPTFADDFRGRFAVSLETSASTAYLQINNLKNEDTATYFCAIFYYGRDSWGQGTTLTVSS VL: DIVMTQSPSSLAVSAGEKVTMSCKSSQSLLGRGDLGRLKKQKDWYQQKPGQSPRLLIYWASTRESGVPDRFTGSGSGTDFTLTISSVQAEDLAVYYCKQSYNLLSFGAGTKLELKR", "score 0-4", 1),
    ("C6 VH / RGD3-6 Vk murine IgG (antibody, V domains shown, Murine IgG, supernatant of 293 cells; CDRL1 swap into the C6D4 murine IgG vector, VH not altered; also called C6RGD3-6) VH: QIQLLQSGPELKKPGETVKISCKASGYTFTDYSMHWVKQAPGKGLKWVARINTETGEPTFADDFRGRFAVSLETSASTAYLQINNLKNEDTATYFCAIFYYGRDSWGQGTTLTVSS VL: DIVMTQSPSSLAVSAGEKVTMSCKSSQSLLGRGDLGRLKNALAWYQQKPGQSPRLLIYWASTRESGVPDRFTGSGSGTDFTLTISSVQAEDLAVYYCKQSYNLLSFGAGTKLELKR", "score 0-4", 4),
    ("C6D4 (composite antibody of C6 VH and D4 VK; murine IgG2a) (antibody, V domains shown, also called C6D4 murine IgG2a; Mab C6D4) VH: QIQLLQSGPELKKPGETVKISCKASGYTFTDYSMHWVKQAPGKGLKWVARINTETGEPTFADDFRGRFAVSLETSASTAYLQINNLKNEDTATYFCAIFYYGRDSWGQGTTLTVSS VL: DIVMTQSPSSLAVSAGEKVTMSCKSSQSLLNSRTRKNYLAWYQQKPGQSPRLLIYWASTRESGVPDRFTGSGSGTDFTLTISSVQAEDLAVYYCKQSYNLLSFGAGTKLELKR", "score 0-4", 4),
    ("C6 VH / RGD3-7 Vk murine IgG (antibody, V domains shown, Murine IgG, supernatant of 293 cells; CDRL1 swap into the C6D4 murine IgG vector, VH not altered; also called C6RGD3-7) VH: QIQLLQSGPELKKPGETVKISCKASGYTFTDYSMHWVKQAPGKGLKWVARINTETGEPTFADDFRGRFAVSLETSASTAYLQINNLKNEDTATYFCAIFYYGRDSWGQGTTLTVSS VL: DIVMTQSPSSLAVSAGEKVTMSCKSSQSLLGRGDLGRLNALAWYQQKPGQSPRLLIYWASTRESGVPDRFTGSGSGTDFTLTISSVQAEDLAVYYCKQSYNLLSFGAGTKLELKR", "score 0-4", 2),
]

With those in mind, consider the next binder.
binding intensity score (0-4) recorded for this binder, C6 VH / RGD2 Vk murine IgG (antibody, V domains shown, Murine IgG, supernatant of 293 cells; CDRL1 of the C6D4 murine IgG vector replaced by the printed loop, VH not altered; also called C6D4-RGD2; C6RGD2) VH: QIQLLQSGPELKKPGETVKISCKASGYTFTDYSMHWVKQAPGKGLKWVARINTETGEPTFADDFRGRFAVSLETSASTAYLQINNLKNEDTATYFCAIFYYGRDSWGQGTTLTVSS VL: DIVMTQSPSSLAVSAGEKVTMSCKSSQSLLNSGRGDLGNALAWYQQKPGQSPRLLIYWASTRESGVPDRFTGSGSGTDFTLTISSVQAEDLAVYYCKQSYNLLSFGAGTKLELKR , is 2
